Test system: IICR (IP3 induced calcium release) in CHO cells
Test: Assay of IICR (IP3 induced calcium release)-inhibiting action
Assay type: cell-based, Chinese hamster
Details: Cricetulus griseus, CHO, test compound 10 μmol; CHO cells, 10 μM ATP; read-out: IICR level (percentage of inhibition)
Readings of inhibition at 10 µM for the listed molecules
measure name: inhibition at 10 µM (%)

{"molecule": "CC(C)(C)N(CCC(=O)c1ccco1)Cc1ccccc1 [Example 121]", "study system": "IICR (IP3 induced calcium release) in CHO cells", "measure name": "inhibition at 10 µM", "reported measurement": 10}
{"molecule": "O=C(CCN(CCO)Cc1ccccc1)c1ccsc1 [Example 184]", "study system": "IICR (IP3 induced calcium release) in CHO cells", "measure name": "inhibition at 10 µM", "reported measurement": 30}
{"molecule": "CC(C)N(CCC(=O)c1cccc2ccccc12)Cc1ccccc1 [Example 82]", "study system": "IICR (IP3 induced calcium release) in CHO cells", "measure name": "inhibition at 10 µM", "reported measurement": 50}
{"molecule": "CC(C)(C)N(CCC(=O)c1nccs1)Cc1ccccc1 [Example 256]", "study system": "IICR (IP3 induced calcium release) in CHO cells", "measure name": "inhibition at 10 µM", "reported measurement": 50}
{"molecule": "CN(CCC(=O)c1ccc[nH]1)Cc1ccccc1 [Example 175]", "study system": "IICR (IP3 induced calcium release) in CHO cells", "measure name": "inhibition at 10 µM", "reported measurement": 10}
{"molecule": "CCC(CO)(CO)NCCC(=O)c1ccc2c(Cl)cccc2c1 [Example 90]", "study system": "IICR (IP3 induced calcium release) in CHO cells", "measure name": "inhibition at 10 µM", "reported measurement": 10}
{"molecule": "Cc1cccc2cc(C(=O)CCN(C)Cc3ccccc3)ccc12 [Example 78]", "study system": "IICR (IP3 induced calcium release) in CHO cells", "measure name": "inhibition at 10 µM", "reported measurement": 20}
{"molecule": "Cc1ccc(C(=O)CCN(CCO)CCO)o1 [Example 145]", "study system": "IICR (IP3 induced calcium release) in CHO cells", "measure name": "inhibition at 10 µM", "reported measurement": 50}
{"molecule": "O=C(CCN(CCO)Cc1ccccc1)c1ccccn1 [Example 96]", "study system": "IICR (IP3 induced calcium release) in CHO cells", "measure name": "inhibition at 10 µM", "reported measurement": 20}
{"molecule": "CN(CCO)CCC(=O)c1ccc2ccccc2c1 [Example 100]", "study system": "IICR (IP3 induced calcium release) in CHO cells", "measure name": "inhibition at 10 µM", "reported measurement": 0}
{"molecule": "Cn1cccc1C(=O)CCN(Cc1ccccc1)C(C)(C)C [Example 165]", "study system": "IICR (IP3 induced calcium release) in CHO cells", "measure name": "inhibition at 10 µM", "reported measurement": 0}
{"molecule": "CC(CN(C)CCO)C(=O)c1ccc(F)cc1 (stereo not drawn) [Example 163]", "study system": "IICR (IP3 induced calcium release) in CHO cells", "measure name": "inhibition at 10 µM", "reported measurement": 0}
{"molecule": "Cc1ccc(C(=O)CCN(Cc2ccccc2)Cc2ccccc2)o1 [Example 138]", "study system": "IICR (IP3 induced calcium release) in CHO cells", "measure name": "inhibition at 10 µM", "reported measurement": 0}
{"molecule": "CC(C)(C)N(CCC(=O)c1cnccn1)Cc1ccccc1 [Example 213]", "study system": "IICR (IP3 induced calcium release) in CHO cells", "measure name": "inhibition at 10 µM", "reported measurement": 20}
{"molecule": "O=C(CCNCC(O)c1ccccc1)c1ccc(Oc2ccccc2)cc1 (stereo not drawn) [Example 87]", "study system": "IICR (IP3 induced calcium release) in CHO cells", "measure name": "inhibition at 10 µM", "reported measurement": 10}
{"molecule": "Cc1csc(C(=O)CCN(Cc2ccccc2)C(C)C)n1 [Example 263]", "study system": "IICR (IP3 induced calcium release) in CHO cells", "measure name": "inhibition at 10 µM", "reported measurement": 0}
{"molecule": "O=C(CCNCCc1ncc[nH]1)c1cccnc1 [Example 176]", "study system": "IICR (IP3 induced calcium release) in CHO cells", "measure name": "inhibition at 10 µM", "reported measurement": 10}
{"molecule": "Cc1ccc(C(=O)CCN(Cc2ccccc2)C(C)C)s1 [Example 318]", "study system": "IICR (IP3 induced calcium release) in CHO cells", "measure name": "inhibition at 10 µM", "reported measurement": 10}
{"molecule": "CCc1nccnc1C(=O)CCN(Cc1ccccc1)C(C)(C)C [Example 188]", "study system": "IICR (IP3 induced calcium release) in CHO cells", "measure name": "inhibition at 10 µM", "reported measurement": 50}
{"molecule": "Cc1cccc2cc(C(=O)CCN(c3ccccc3)c3ccccc3)ccc12 [Example 80]", "study system": "IICR (IP3 induced calcium release) in CHO cells", "measure name": "inhibition at 10 µM", "reported measurement": 10}
{"molecule": "CC(=O)CCN(CCO)C(C)C [Example 197]", "study system": "IICR (IP3 induced calcium release) in CHO cells", "measure name": "inhibition at 10 µM", "reported measurement": 0}
{"molecule": "O=C(CCN(CCO)Cc1ccccc1)c1ccc(I)s1 [Example 379]", "study system": "IICR (IP3 induced calcium release) in CHO cells", "measure name": "inhibition at 10 µM", "reported measurement": 50}
{"molecule": "CC(C)(C)N(CCC(=O)c1ccsc1)Cc1ccccc1 [Example 238]", "study system": "IICR (IP3 induced calcium release) in CHO cells", "measure name": "inhibition at 10 µM", "reported measurement": 10}
{"molecule": "COC(=O)C(CSSCC(NCCC(=O)c1cnccn1)C(=O)OC)NCCC(=O)c1cnccn1 (stereo not drawn) [Example 402]", "study system": "IICR (IP3 induced calcium release) in CHO cells", "measure name": "inhibition at 10 µM", "reported measurement": 39}
{"molecule": "CC(C)N(CCO)CCC(=O)c1ccc(F)cc1 [Example 166]", "study system": "IICR (IP3 induced calcium release) in CHO cells", "measure name": "inhibition at 10 µM", "reported measurement": 0}
{"molecule": "CCN(CCO)CCC(=O)c1cc(C)c(C)o1 [Example 226]", "study system": "IICR (IP3 induced calcium release) in CHO cells", "measure name": "inhibition at 10 µM", "reported measurement": 0}
{"molecule": "CC(C)N(CCC(=O)c1ccc(-c2ccccc2)cc1)Cc1ccccc1 [Example 297]", "study system": "IICR (IP3 induced calcium release) in CHO cells", "measure name": "inhibition at 10 µM", "reported measurement": 50}
{"molecule": "O=C(CCNCCS)c1ccc(Br)s1 [Example 335]", "study system": "IICR (IP3 induced calcium release) in CHO cells", "measure name": "inhibition at 10 µM", "reported measurement": 10}
{"molecule": "CC(C)N(CCC(=O)c1ccc(Cl)s1)Cc1ccccc1 [Example 266]", "study system": "IICR (IP3 induced calcium release) in CHO cells", "measure name": "inhibition at 10 µM", "reported measurement": 0}
{"molecule": "O=C(CCN(CCO)CCO)c1nccs1 [Example 143]", "study system": "IICR (IP3 induced calcium release) in CHO cells", "measure name": "inhibition at 10 µM", "reported measurement": 0}
{"molecule": "CC(C)N(CCC(=O)c1cccs1)Cc1ccccc1 [Example 183]", "study system": "IICR (IP3 induced calcium release) in CHO cells", "measure name": "inhibition at 10 µM", "reported measurement": 0}
{"molecule": "CC(C)N(CCC(=O)n1ccnc1)Cc1ccccc1 [Example 224]", "study system": "IICR (IP3 induced calcium release) in CHO cells", "measure name": "inhibition at 10 µM", "reported measurement": 20}
{"molecule": "N[C@@H](CSSC[C@@H](C(=O)O)N(CCC(=O)c1ccc(Cl)s1)CCC(=O)c1ccc(Cl)s1)C(=O)O [Example 387]", "study system": "IICR (IP3 induced calcium release) in CHO cells", "measure name": "inhibition at 10 µM", "reported measurement": 0}
{"molecule": "C=CC(=O)c1ccco1 [Example 171, 2-furyl vinylketone]", "study system": "IICR (IP3 induced calcium release) in CHO cells", "measure name": "inhibition at 10 µM", "reported measurement": 0}
{"molecule": "CCN(CO)CCC(=O)c1ccc(Br)s1 [Example 362]", "study system": "IICR (IP3 induced calcium release) in CHO cells", "measure name": "inhibition at 10 µM", "reported measurement": 0}
{"molecule": "Cc1nc(C)c(C(=O)CCN(CCO)C(C)C)s1 [Example 257]", "study system": "IICR (IP3 induced calcium release) in CHO cells", "measure name": "inhibition at 10 µM", "reported measurement": 0}
{"molecule": "CN(CCO)CCC(=O)c1ccsc1 [Example 254]", "study system": "IICR (IP3 induced calcium release) in CHO cells", "measure name": "inhibition at 10 µM", "reported measurement": 0}
{"molecule": "CCCCN(CCO)CCC(=O)c1ccccn1 [Example 250]", "study system": "IICR (IP3 induced calcium release) in CHO cells", "measure name": "inhibition at 10 µM", "reported measurement": 0}
{"molecule": "Cc1csc(C(=O)CCN(Cc2ccccc2)C(C)C)c1 [Example 321]", "study system": "IICR (IP3 induced calcium release) in CHO cells", "measure name": "inhibition at 10 µM", "reported measurement": 20}
{"molecule": "Cc1ccc(C(=O)CCNC23CC4CC(CC(C4)C2)C3)o1 [Example 190]", "study system": "IICR (IP3 induced calcium release) in CHO cells", "measure name": "inhibition at 10 µM", "reported measurement": 0}
{"molecule": "O=C(CCN1CCCC1CO)c1cnccn1 (stereo not drawn) [Example 282]", "study system": "IICR (IP3 induced calcium release) in CHO cells", "measure name": "inhibition at 10 µM", "reported measurement": 0}
{"molecule": "CC(C)N(CCO)CCC(=O)c1ccsc1 [Example 56]", "study system": "IICR (IP3 induced calcium release) in CHO cells", "measure name": "inhibition at 10 µM", "reported measurement": 0}
